Test system: Escherichia coli
assay_summary: Antibacterial activity against extended-spectrum beta-lactamase harboring Escherichia coli ATCC 35218 after 18 to 24 hrs by two-fold serial dilution method
Format: functional

[
  {
    "compound": "CCO/N=C1\\C(=O)N(CCCN2CCN(c3cc4c(cc3F)c(=O)c(C(=O)OCCCN3C(=O)/C(=N/OCC)c5ccccc53)cn4C3CC3)CC2)c2ccccc21",
    "value_qualifier": "=",
    "MIC90 / µg/mL": 32
  },
  {
    "compound": "CCO/N=C1\\C(=O)N(CCCN2CCN(c3cc4c(cc3F)c(=O)c(C(=O)O)cn4C3CC3)CC2)c2ccc(C)cc21",
    "value_qualifier": "≤",
    "MIC90 / µg/mL": 0.03
  },
  {
    "compound": "Cc1ccc2c(c1)C(=O)C(=O)N2CCCN1CCN(c2cc3c(cc2F)c(=O)c(C(=O)O)cn3C2CC2)CC1",
    "value_qualifier": "≤",
    "MIC90 / µg/mL": 0.03
  },
  {
    "compound": "CO/N=C1\\C(=O)N(CCCN2CCN(c3cc4c(cc3F)c(=O)c(C(=O)OCCCN3C(=O)/C(=N/OC)c5ccccc53)cn4C3CC3)CC2)c2ccccc21",
    "value_qualifier": "=",
    "MIC90 / µg/mL": 4
  },
  {
    "compound": "O=C1C(=O)N(CCCN2CCN(c3cc4c(cc3F)c(=O)c(C(=O)O)cn4C3CC3)CC2)c2ccccc21",
    "value_qualifier": "≤",
    "MIC90 / µg/mL": 0.03
  },
  {
    "compound": "CCO/N=C1\\C(=O)N(CCCN2CCN(c3cc4c(cc3F)c(=O)c(C(=O)O)cn4C3CC3)CC2)c2ccccc21",
    "value_qualifier": "≤",
    "MIC90 / µg/mL": 0.03
  },
  {
    "compound": "CO/N=C1\\C(=O)N(CCCN2CCN(c3cc4c(cc3F)c(=O)c(C(=O)O)cn4C3CC3)CC2)c2ccccc21",
    "value_qualifier": "≤",
    "MIC90 / µg/mL": 0.03
  },
  {
    "compound": "C[C@H]1COc2c(N3CCN(C)CC3)c(F)cc3c(=O)c(C(=O)O)cn1c23.C[C@H]1COc2c(N3CCN(C)CC3)c(F)cc3c(=O)c(C(=O)O)cn1c23.O [LEVOFLOXACIN]",
    "value_qualifier": "≤",
    "MIC90 / µg/mL": 0.03
  },
  {
    "compound": "CCO/N=C1\\C(=O)N(CCCN2CCN(c3cc4c(cc3F)c(=O)c(C(=O)OCCCN3C(=O)/C(=N/OCC)c5cc(C)ccc53)cn4C3CC3)CC2)c2ccc(C)cc21",
    "value_qualifier": "=",
    "MIC90 / µg/mL": 16
  },
  {
    "compound": "CO/N=C1\\C(=O)N(CCCN2CCN(c3cc4c(cc3F)c(=O)c(C(=O)O)cn4C3CC3)CC2)c2ccc(C)cc21",
    "value_qualifier": "≤",
    "MIC90 / µg/mL": 0.03
  },
  {
    "compound": "O=C(O)c1cn(C2CC2)c2cc(N3CCNCC3)c(F)cc2c1=O [CIPROFLOXACIN]",
    "value_qualifier": "≤",
    "MIC90 / µg/mL": 0.03
  },
  {
    "compound": "O=C1C(=O)N(CCCOC(=O)c2cn(C3CC3)c3cc(N4CCN(CCCN5C(=O)C(=O)c6ccccc65)CC4)c(F)cc3c2=O)c2ccccc21",
    "value_qualifier": "=",
    "MIC90 / µg/mL": 16
  },
  {
    "compound": "Cc1ccc2c(c1)C(=O)C(=O)N2CCCOC(=O)c1cn(C2CC2)c2cc(N3CCN(CCCN4C(=O)C(=O)c5cc(C)ccc54)CC3)c(F)cc2c1=O",
    "value_qualifier": "=",
    "MIC90 / µg/mL": 8
  },
  {
    "compound": "CO/N=C1\\C(=O)N(CCCN2CCN(c3cc4c(cc3F)c(=O)c(C(=O)OCCCN3C(=O)/C(=N/OC)c5cc(C)ccc53)cn4C3CC3)CC2)c2ccc(C)cc21",
    "value_qualifier": "=",
    "MIC90 / µg/mL": 16
  }
]

====

System: Morganella morganii
assay_summary: Antibacterial activity against Morganella morganii ATCC 25830 after 18 to 24 hrs by two-fold serial dilution method
Assay type: functional
observed_property: MIC90 (mg/L)

[
  {
    "smiles_repr": "CCO/N=C1\\C(=O)N(CCCN2CCN(c3cc4c(cc3F)c(=O)c(C(=O)OCCCN3C(=O)/C(=N/OCC)c5ccccc53)cn4C3CC3)CC2)c2ccccc21",
    "uom": "mg/L",
    "value_qualifier": "=",
    "endpoint_result": 64
  },
  {
    "smiles_repr": "O=C(O)c1cn(C2CC2)c2cc(N3CCNCC3)c(F)cc2c1=O",
    "uom": "mg/L",
    "value_qualifier": "≤",
    "endpoint_result": 0.03
  },
  {
    "smiles_repr": "CO/N=C1\\C(=O)N(CCCN2CCN(c3cc4c(cc3F)c(=O)c(C(=O)O)cn4C3CC3)CC2)c2ccc(C)cc21",
    "uom": "mg/L",
    "value_qualifier": "≤",
    "endpoint_result": 0.03
  },
  {
    "smiles_repr": "Cc1ccc2c(c1)C(=O)C(=O)N2CCCOC(=O)c1cn(C2CC2)c2cc(N3CCN(CCCN4C(=O)C(=O)c5cc(C)ccc54)CC3)c(F)cc2c1=O",
    "uom": "mg/L",
    "value_qualifier": "=",
    "endpoint_result": 64
  }
]

====

assay_summary: Cytotoxicity against African green monkey Vero cells assessed as reduction in cell viability after 72 hrs by MTT assay
Type: cell-based
condition_summary: chlorocebus sabaeus
Reported CC50 at 72 h values follow for various compounds
observed_property: CC50 at 72 h (µg/mL)

[
  {
    "compound": "CCO/N=C1\\C(=O)N(CCCN2CCN(c3cc4c(cc3F)c(=O)c(C(=O)OCCCN3C(=O)/C(=N/OCC)c5cc(C)ccc53)cn4C3CC3)CC2)c2ccc(C)cc21",
    "observed_property": "CC50 at 72 h",
    "uom": "µg/mL",
    "endpoint_result": 64
  },
  {
    "compound": "CCO/N=C1\\C(=O)N(CCCN2CCN(c3cc4c(cc3F)c(=O)c(C(=O)OCCCN3C(=O)/C(=N/OCC)c5ccccc53)cn4C3CC3)CC2)c2ccccc21",
    "observed_property": "CC50 at 72 h",
    "uom": "µg/mL",
    "endpoint_result": 32
  },
  {
    "compound": "O=C1C(=O)N(CCCOC(=O)c2cn(C3CC3)c3cc(N4CCN(CCCN5C(=O)C(=O)c6ccccc65)CC4)c(F)cc3c2=O)c2ccccc21",
    "observed_property": "CC50 at 72 h",
    "uom": "µg/mL",
    "endpoint_result": 32
  },
  {
    "compound": "O=C1C(=O)N(CCCN2CCN(c3cc4c(cc3F)c(=O)c(C(=O)O)cn4C3CC3)CC2)c2ccccc21",
    "observed_property": "CC50 at 72 h",
    "uom": "µg/mL",
    "endpoint_result": 128
  },
  {
    "compound": "CO/N=C1\\C(=O)N(CCCN2CCN(c3cc4c(cc3F)c(=O)c(C(=O)O)cn4C3CC3)CC2)c2ccccc21",
    "observed_property": "CC50 at 72 h",
    "uom": "µg/mL",
    "endpoint_result": 32
  },
  {
    "compound": "CO/N=C1\\C(=O)N(CCCN2CCN(c3cc4c(cc3F)c(=O)c(C(=O)OCCCN3C(=O)/C(=N/OC)c5cc(C)ccc53)cn4C3CC3)CC2)c2ccc(C)cc21",
    "observed_property": "CC50 at 72 h",
    "uom": "µg/mL",
    "endpoint_result": 16
  },
  {
    "compound": "CO/N=C1\\C(=O)N(CCCN2CCN(c3cc4c(cc3F)c(=O)c(C(=O)OCCCN3C(=O)/C(=N/OC)c5ccccc53)cn4C3CC3)CC2)c2ccccc21",
    "observed_property": "CC50 at 72 h",
    "uom": "µg/mL",
    "endpoint_result": 64
  },
  {
    "compound": "CCO/N=C1\\C(=O)N(CCCN2CCN(c3cc4c(cc3F)c(=O)c(C(=O)O)cn4C3CC3)CC2)c2ccccc21",
    "observed_property": "CC50 at 72 h",
    "uom": "µg/mL",
    "endpoint_result": 64
  },
  {
    "compound": "Cc1ccc2c(c1)C(=O)C(=O)N2CCCN1CCN(c2cc3c(cc2F)c(=O)c(C(=O)O)cn3C2CC2)CC1",
    "observed_property": "CC50 at 72 h",
    "uom": "µg/mL",
    "endpoint_result": 64
  },
  {
    "compound": "CO/N=C1\\C(=O)N(CCCN2CCN(c3cc4c(cc3F)c(=O)c(C(=O)O)cn4C3CC3)CC2)c2ccc(C)cc21",
    "observed_property": "CC50 at 72 h",
    "uom": "µg/mL",
    "endpoint_result": 256
  },
  {
    "compound": "CCO/N=C1\\C(=O)N(CCCN2CCN(c3cc4c(cc3F)c(=O)c(C(=O)O)cn4C3CC3)CC2)c2ccc(C)cc21",
    "observed_property": "CC50 at 72 h",
    "uom": "µg/mL",
    "endpoint_result": 128
  },
  {
    "compound": "O=C(O)c1cn(C2CC2)c2cc(N3CCNCC3)c(F)cc2c1=O [CIPROFLOXACIN]",
    "observed_property": "CC50 at 72 h",
    "uom": "µg/mL",
    "endpoint_result": 128
  },
  {
    "compound": "Cc1ccc2c(c1)C(=O)C(=O)N2CCCOC(=O)c1cn(C2CC2)c2cc(N3CCN(CCCN4C(=O)C(=O)c5cc(C)ccc54)CC3)c(F)cc2c1=O",
    "observed_property": "CC50 at 72 h",
    "uom": "µg/mL",
    "endpoint_result": 64
  }
]

# credit: ChEMBL document CHEMBL4270565
